Recorded GI50, one value per entry.
# System: NCI-H23
# Test Method Notes: NCI tumour cell line growth inhibition, 48 h
The source made the active and inactive calls. Cut-off read from the data, not from the text of the source: active = GI50 up to about 1.1 µM and inactive = higher.

| Compound | GI50 |
| --- | --- |
| O=[N+]([O-])C(=C1NCCN1)C(Cl)=C(Cl)Cl | > 100 µM (inactive) |

Param item = Cc1ccc(-c2cc(N)n(-c3nc4c([nH]3)c(=O)n(C)c(=O)n4C)n2)cc1 ; retrieve measured GI50.
8.95 µM (inactive)

Fill in the blank: the reported GI50 of CCC1C(C)c2c([nH]c3ccccc23)C2C(=O)N(c3ccccc3)C(=O)C21 (stereo unspecified) is ____.
18.6 µM (inactive)

So what does the record say about GI50 for CCN(CC)c1c(C(=O)/C=C/c2ccc(OC)cc2)c(-c2ccccc2)nn(C)c1=O ?
10.4 µM (inactive)

Which GI50 is reported for this compound? COc1ccc(-c2c(-c3ccc(OC)cc3)n3c(=O)n(C)c(=O)n23)cc1
> 100 µM (inactive)

Would you kindly share the measured GI50 for C=C[C@H]1CN2CCc3c([nH]c4cc(O)ccc34)[C@@H]2C[C@@H]1C[C@H]1c2[nH]c3ccccc3c2CCN1C ?
16 µM (inactive)

====

# Test system: SNB-19
# Test Method Notes: NCI tumour cell line growth inhibition, 48 h
The source made the active and inactive calls. Cut-off read from the data, not from the text of the source: active = GI50 up to about 1.1 µM and inactive = higher.
Recorded Endpoint: GI50

Consider the worked cases shown below.
| Compound | GI50 |
| --- | --- |
| CC1(C)CC2(C)CC1CC2NC(=O)CCN1CCOCC1 (centres undefined) | > 100 µM (inactive) |
| c1ccc(-c2[nH]c(-c3ccccc3)c(-c3cnccn3)c2-c2cnccn2)cc1 | > 100 µM (inactive) |
| COc1cc2nc(-c3cccs3)nc(N3C(c4cc(OC)c(OC)c(OC)c4)=NNC(=O)c4ccccc43)c2cc1OC | 16.4 µM (inactive) |

Would you mind telling me what GI50 value was observed for C=CCN1C[C@H](C)N([C@@H](c2ccc(C(=O)N3CCCCC3)cc2)c2cccc(OC)c2)C[C@H]1C ?
50.5 µM (inactive)

I am curious: what GI50 value has been reported for CCOC(=O)C1C(O)CC2c3ccccc3-c3ccccc3C21 (centres undefined) ?
33.5 µM (inactive)

// returns reported GI50 for input O=c1[nH]c(=O)n(CCOc2ccccc2)cc1Nc1ccccc1
> 100 µM (inactive)

// query GI50 value for entry COc1ccc2c(C)cc(N/N=C/c3ccc(C)s3)nc2c1
25.4 µM (inactive)

Which GI50 is listed for CN1CCN(C2=NCCO2)CC1 ?
> 100 µM (inactive)

State the recorded GI50 for this entry: CCc1c(C)c(C#N)c(=S)n(C2OC(COC(C)=O)C(OC(C)=O)C(OC(C)=O)C2OC(C)=O)c1-c1ccccc1 (centres undefined)
> 10 µM (inactive)

GI50 lookup needed for Cc1c(-c2cc3n(n2)C(c2cccs2)C(C#N)=C(c2ccccc2)N3)c(=O)n(-c2ccccc2)n1C (centres undefined) , thanks.
> 100 µM (inactive)

For the compound O=C(O)CN1CCN2CCCCCCCCN(CC1)CCN(CC(=O)O)CC2 , what GI50 is on record?
> 100 µM (inactive)

Fill in: GI50 of CCCCN/N=N/c1cn(C2OC(CO)C(O)C2O)c(=O)[nH]c1=O (centres undefined) is ___
> 100 µM (inactive)

====

# Test system: RXF 393
# Test Method Notes: NCI tumour cell line growth inhibition, 48 h
Activity calls are given as the source filed them. Cut-off read from the data, not from the text of the source: active = GI50 up to about 1.1 µM and inactive = higher.
Pick one and only one: TRUE = active, FALSE = inactive

// known answers, use as guide
| Molecule | System Tested | Category |
| --- | --- | --- |
| COC(=O)C(CCC1C=CCC1)/N=C\c1ccccc1 (stereo not given) | RXF 393 | FALSE |
| CC(Oc1ccccc1Cl)C(=O)NN1C(=O)CC(=O)N(c2ccc(Cl)cc2)C1=S (stereo not given) | RXF 393 | FALSE |

Fill in: this test's call for CC(=O)Nc1ccc2c3c(cc(O)c2c1)N(C(=O)CCCCCCC(=O)Nc1ccc2c4c(cc(O)c2c1)N(C(=O)OC(C)(C)C)CC4CCl)CC3CCl (stereo not given) is ___
TRUE

Can you look up the reported call for CC(=O)Nc1ccc(C2CC(c3ccc([N+](=O)[O-])cc3)=Nc3ccccc3[S+]2[O-])cc1 (stereo not given) for me?
FALSE

Could you check what this test reported for Cc1ccc(-[n+]2cc([O-])on2)cc1 ?
FALSE

====

# Test system: SK-OV-3
# Test Method Notes: NCI tumour cell line growth inhibition, 48 h
Active and inactive are the calls of the source. Rule as the data show it: active = GI50 up to about 1.1 µM and inactive = higher.
// values below are reported GI50

Some solved cases for reference:
| Compound | System Tested | Recorded Endpoint | Observed Value |
| --- | --- | --- | --- |
| COc1cc2c3c(c1)CCCN3CCC2 | SK-OV-3 | GI50 | > 10 µM (inactive) |
| COc1cc2c(cc1OC)C1C(O)C(OC)C=C3CC[N+](C)(C2)C31 (stereo not given) | SK-OV-3 | GI50 | > 100 µM (inactive) |
| C#Cc1c(C)c(/C=C/C(C)=C/C(=O)OC)n(C)c1C | SK-OV-3 | GI50 | > 100 µM (inactive) |

GI50 lookup needed for CC(=O)Nc1ccc(C2CC(c3ccc([N+](=O)[O-])cc3)=Nc3ccccc3[S+]2[O-])cc1 (stereo not given) , thanks.
27.4 µM (inactive)

Requested read-out: GI50. Entry: CN(/N=C(\C(=O)O)c1ccccc1)C1=NCCCN1
> 100 µM (inactive)

Requested read-out: GI50. Entry: COC(=O)C1=C(c2cc(OC)c(OC)c(OC)c2)OC(c2cc(OC)c(OC)c(OC)c2)C1COC(C)=O (stereo not given)
44.8 µM (inactive)

GI50 lookup needed for Cc1ccc(S(=O)(=O)N/N=C2\C=CC3(CC2)C(=O)N(I)c2ccccc23)cc1 (stereo not given) , thanks.
> 100 µM (inactive)

Could you tell me which GI50 is on file for O=S(=O)(/N=C(\NO)Nc1ccc(Cl)cc1)c1ccc(-c2ccccn2)s1 ?
56.1 µM (inactive)

What GI50 value was documented for this compound, NC(CC(=O)Nc1cc(C(F)(F)F)ccc1Cl)=NO ?
> 100 µM (inactive)

I am curious: what GI50 value has been reported for COc1cccc2c(=O)oc(-c3ccccc3C)nc12 ?
> 100 µM (inactive)

====

# Test system: NCI-H23
# Test Method Notes: NCI tumour cell line growth inhibition, 48 h
Active and inactive are the calls of the source. Cut-off read from the data, not from the text of the source: active = GI50 up to about 1.1 µM and inactive = higher.
The reader will find reported GI50 values listed item by item below.

| Molecule | Recorded Endpoint | Observed Value |
| --- | --- | --- |
| CC(=O)Nc1ccc(C2CC(c3ccc([N+](=O)[O-])cc3)=Nc3ccccc3[S+]2[O-])cc1 (stereo not given) | GI50 | 21.5 µM (inactive) |
| CC(C)(C)c1cc(C2NCCO2)cc(C(C)(C)C)c1O (stereo not given) | GI50 | 51.4 µM (inactive) |
| CCCCCCCCCCCCCCC(C(=O)[O-])[n+]1ccccc1 (stereo not given) | GI50 | > 100 µM (inactive) |
| O=S(=O)(O)c1cc(Cl)c(O)c2ncc(Cl)cc12 | GI50 | 72.4 µM (inactive) |
| Cc1ccc(S(=O)(=O)N2CCCSCCSCCCN(S(=O)(=O)c3ccc(C)cc3)CC2)cc1 | GI50 | > 100 µM (inactive) |

Consider the molecule shown here: CN1CC(=O)N(C)c2ncn(Cc3ccccc3)c2C1=O What is its recorded GI50?
> 100 µM (inactive)

# get_value(readout='GI50', item= Cc1ccccc1-n1c(N)c(-c2nc3ccccc3[nH]2)sc1=S )
23.3 µM (inactive)

Entry N#CC(N)(C(=O)CCC(=O)Nc1cccc(Cl)c1)c1ccc(Cl)cc1 (stereo not given) : reported GI50 = ?
> 100 µM (inactive)

For CCc1cccc(CC)c1NC(=O)/C(Cl)=C(/Cl)C(=O)O , what is its reported GI50?
38.3 µM (inactive)

For CCC1(C)NN=c2s/c(=C/c3ccc(OC)cc3)c(=O)n2N1 (stereo not given) , what is its reported GI50?
> 100 µM (inactive)

Would you mind telling me what GI50 value was observed for CCCCCCCCCCCCN(O)C(=O)c1ccccc1 ?
14.9 µM (inactive)

Reported GI50, molecule CN(C)c1cc[n+](-c2nc([N-]C(=O)C(F)(F)F)nc3c2ncn3C2CC(O)C(CO)O2)cc1 (stereo not given) : ____
> 100 µM (inactive)

I have this molecule here, O=C1C=CC(=O)N1c1ccc2c(c1)Cc1cc(NC(=O)C(F)(F)F)ccc1-2 , and I need its recorded GI50.
16.4 µM (inactive)

GET /values?readout=GI50&item= O=C1C=C(c2c(-c3ccccc3)[nH]c3ccccc23)C(=O)N1c1ccccc1
10.7 µM (inactive)

Give the measured GI50 of Cc1nnc2n1N=C(c1cc(F)c(Cl)cc1Cl)/C(=C/c1ccc3c(c1)OCO3)S2 .
90.8 µM (inactive)
